# ASSAY PROCEDURE: Cmax in CD1 mouse at 30 mg/kg, po administered as single dose
# Type: ADME, organism-based
# Design: dose 30 mg/kg, route po
# CONDITIONS: in vivo
READOUT: Cmax (ng/mL)
A number alone suffices; assume ng/mL.

Fill in Cmax for record `Cc1ncsc1-c1ccc([C@H](C)NC(=O)[C@@H]2C[C@@H](O)CN2C(=O)[C@@H](NC(=O)CCCCOc2ccc(-c3csc(N4CCOCC4)n3)cc2)C(C)(C)C)cc1`
773

* * *

# ASSAY PROCEDURE: AUC (0 to infinity) in CD1 mouse at 30 mg/kg, po administered as single dose
# Format: ADME, organism-based
# Set-up: time infinity, dose 30 mg/kg, route po
# CONDITIONS: in vivo
READOUT: AUC(0-inf) (ng·h/mL)
A number alone suffices; assume ng·h/mL.

Fill in AUC(0-inf) for record `Cc1ncsc1-c1ccc([C@H](C)NC(=O)[C@@H]2C[C@@H](O)CN2C(=O)[C@@H](NC(=O)CCCCOc2ccc(-c3csc(N4CCOCC4)n3)cc2)C(C)(C)C)cc1`
1980

* * *

# ASSAY PROCEDURE: Tmax in CD1 mouse at 100 mg/kg, po administered as single dose
# Type: ADME, organism-based
# CONDITIONS: in vivo
READOUT: Tmax (h)
A number alone suffices; assume h.

Fill in Tmax for record `Cc1ncsc1-c1ccc([C@H](C)NC(=O)[C@@H]2C[C@@H](O)CN2C(=O)[C@@H](NC(=O)CCCCOc2ccc(-c3csc(N4CCOCC4)n3)cc2)C(C)(C)C)cc1`
1.33

* * *

# ASSAY PROCEDURE: Cmax in CD1 mouse at 100 mg/kg, po administered as single dose
# Assay type: ADME, organism-based
# Set-up: dose 100 mg/kg, route po
# CONDITIONS: in vivo
READOUT: Cmax (ng/mL)
A number alone suffices; assume ng/mL.

Fill in Cmax for record `Cc1ncsc1-c1ccc([C@H](C)NC(=O)[C@@H]2C[C@@H](O)CN2C(=O)[C@@H](NC(=O)CCCCOc2ccc(-c3csc(N4CCOCC4)n3)cc2)C(C)(C)C)cc1`
1810

* * *

# ASSAY PROCEDURE: Terminal half life in CD1 mouse at 100 mg/kg, po administered as single dose
# Format: ADME, organism-based
# CONDITIONS: in vivo, read-out: beta t1/2 (converted)
READOUT: half-life
# number then unit; no other words

Fill in half-life for record `Cc1ncsc1-c1ccc([C@H](C)NC(=O)[C@@H]2C[C@@H](O)CN2C(=O)[C@@H](NC(=O)CCCCOc2ccc(-c3csc(N4CCOCC4)n3)cc2)C(C)(C)C)cc1`
42 min

* * *

# ASSAY PROCEDURE: Terminal half life in CD1 mouse at 1 mg/kg, iv administered as single dose
# Format: ADME, organism-based
# CONDITIONS: in vivo, read-out: beta t1/2 (converted)
READOUT: half-life (min)
A number alone suffices; assume min.

Fill in half-life for record `Cc1ncsc1-c1ccc([C@H](C)NC(=O)[C@@H]2C[C@@H](O)CN2C(=O)[C@@H](NC(=O)CCCCOc2ccc(-c3csc(N4CCOCC4)n3)cc2)C(C)(C)C)cc1`
54

* * *

# ASSAY PROCEDURE: Tmax in CD1 mouse at 30 mg/kg, po administered as single dose
# Format: ADME, organism-based
# CONDITIONS: in vivo
READOUT: Tmax (min)
A number alone suffices; assume min.

Fill in Tmax for record `Cc1ncsc1-c1ccc([C@H](C)NC(=O)[C@@H]2C[C@@H](O)CN2C(=O)[C@@H](NC(=O)CCCCOc2ccc(-c3csc(N4CCOCC4)n3)cc2)C(C)(C)C)cc1`
45
